Data origin: the nanobody polyreactivity screen of Harvey et al. (2022)

assay: yeast display, Sf9 membrane polyspecificity reagent, FACS + sequencing; frameworks hold sequencing errors
ENDPOINT_LABEL: polyreactivity (PSR sort gate)

INSERT INTO assay_data (residue_string, endpoint_label, measurement) VALUES
  ('QVQLVESGGGLVQAGGSLRLSCAASGSNFGRYVMGWYRQAPGKERELVAAITRTGVRTYYADSVKGRFTISRDNANNTVYLQINSLKPEDTAVYYCNRYGARSNDYWGQGTQVTESS', 'polyreactivity (PSR sort gate)', 'low polyreactivity'),
  ('QVQLVESGGGLVQAGGSLRLSCAASGSTFRGYAMGWYRQAPGKERELVAAISWSAGSTYYADSVKGRFTISRDNAKNTVYLQMNRLKPEDTAVYYCAKASVALRYYSYSLGRDYWGQGTQVTVSS', 'polyreactivity (PSR sort gate)', 'low polyreactivity'),
  ('QVQLVESGGGLVQAGGSLSLSCAASGSIFLRNAMGWYRPAPGKERELVAAITRVGSTYADSVKGRFTISRDNAKNTVYLQMNSLKPEDTAVYYCAAVSGVRSGPWRYDYWGQGTQVTVSS', 'polyreactivity (PSR sort gate)', 'high polyreactivity'),
  ('QVQLVESGGGLVQAGGSLRLSCAASGNTFDVYVMGWYRQAPGKERELVAAINKGGGRTYYADSVKGRFTISRDNAKNTVYLQMNSLKPEDTAVYYCAAVSPKYESSYYYWGQGTQVTVSS', 'polyreactivity (PSR sort gate)', 'high polyreactivity'),
  ('QVQLVESVGGLVLAGARLRLSCAASGRIFRFYAMGWYREAPGKERELVAAISSGGRTYSADSVKGRFTISRDNAKNTVYLQMNSLKPEDTAVYYCNTPYTVRGRYTSDYWGQGTQVTVSS', 'polyreactivity (PSR sort gate)', 'high polyreactivity');

----------
assay: yeast display, Sf9 membrane polyspecificity reagent, FACS + sequencing; frameworks hold sequencing errors
ENDPOINT_LABEL: polyreactivity (PSR sort gate)

INSERT INTO assay_data (residue_string, measurement) VALUES
  ('QVQLVESGGGLVQAGGSLRLSCAASGRTFYNYAMGWYRQAPGKERELVAAISWSDGTTYYADSVKGRFTISRDNAKNTVYLQMNSLKPEDTAVYYCAAEFESSFALGFYYWGQGTQVTVSS', 'high polyreactivity'),
  ('QVQLVESGGGLVQAGGSLRLSCAASGRTFHAYVMGWYRQAPGKERELVADISSGGDTYADSVKGRFTISRDNAKNTVYLQMNSLKPEDTAVYYCAVDLIQDESRYWGQGTQVTVSS', 'low polyreactivity'),
  ('QGQLVESGGGLVQAGGRLRLSCAASGFIFCIYAMAWYRTATGKQREFVAVSTYRGDTKYYADSVKGRFTISRDNAKNTVYLQMNSLKAEDTAVYSCAAYTVQKYGYWGQGTQVTVSS', 'low polyreactivity'),
  ('QVQLVESGGGLVQAGGSLRLSCAASGRIFYRNVMGWNRQAPGKERELVAAITYRTGSTYYADSVKGRFTISRDNAKNTVYLQMNSLKPEDTAVYYCNVVPRNGQTWGYEYDYWGQGTQVTVSS', 'high polyreactivity'),
  ('QVQLVESGGGLVQAGGSLRLSCAASGFTFLFNTMGWYRQAPGKERELVAGISRGGSTTYADSVKGRFTISRDNAKNTVYLQMNSLKPEDTAVYYCAARTRYNWRGYDYWGQGTQVTVSS', 'high polyreactivity'),
  ('QVQLVESGGGLVQAGGSLRLSCAASGFTFGRYAMGWYRQAPGKERELVAAISRGGSTYYADSVKGRFTISRDNAKNTVYLQMNSLKPEDTAVYYCNKGDSKEYDVYYWGQGTQVTVSS', 'low polyreactivity'),
  ('QVQLVESGGGLVQAGGSLSLSCAASGTFYGNTMGWYRQAPGKERELVAVISIDGSTNYADSVKGRFTISRDNAKNTVYLQMNCLKPEDTAVYYCNARNQWRTVGKYDYWGQGTQVSVSS', 'low polyreactivity'),
  ('QVQLVESGGGLVQAGGSLRLSCAASGRTFNTYAMGWYRQAPGKERELVAAISSGGRTYYADSVKGRFTISRDNAKNTVYLQMNSLKPEDTAVYYCAAKPFQYRTVYEYWGQGTQVTVSS', 'high polyreactivity'),
  ('QVQLVESGGGLVQAGGSLRLSCAASGRTSRIYAMGWYRPAPGKRELVAAISGSGSRTYYADSVKGRFTISRDNAKNTVYIQMNSLKPEDTAVYYCNGRYWYRDHPPEFDYWGQGTQVTVSS', 'high polyreactivity'),
  ('QVQLVESGGGLVQAGGSLRVSCAASGYTFKHYTMGWYREAPGKERELVATISIRGGNTSYADSVKGRFTISRDTAKNTVYLQMNSLKPEDTAVYYCAARSVNAPPRYRQKAGYDYWGQGTQETVSS', 'high polyreactivity'),
  ('QVQLVESGGGLVQAGGSLRLSCAASGFIFQIYAMGWYRQAPGKERELVAAISSGGSTNYADSVKGRFTISRDNAKNTVYVQMNSMKPEDTAVYYCAAATHYWYFYSFKDKSGFRGYYWGQGTQVTVSS', 'high polyreactivity');

----------
test: yeast display, Sf9 membrane polyspecificity reagent, FACS + sequencing; frameworks hold sequencing errors
ENDPOINT_LABEL: polyreactivity (PSR sort gate)

INSERT INTO results (residue_string, measurement) VALUES
  ('QVQLVESGGGLVQAGGSLRLSCAASGLIFKSYAMGWYRQAPGKERELVAAISSGGTTYYADSVKGRFTISRDNAKNTVYLQMNSLKPEDTAVYYCAAYFKQPVEPCEYWGQGTQVTVSS', 'high polyreactivity'),
  ('QVQLVESGGGLVQAGGSLRLSCAASGSTFRYYAMGWYRQAPGKERELVAAISRSGTSTYYADSVKGRFTISRDNAKKTVYLQMNSLKPEDTAVYYCAADWHSKIGKGYDYWGQGTQVTVSS', 'high polyreactivity');

----------
test: yeast display, Sf9 membrane polyspecificity reagent, FACS + sequencing; frameworks hold sequencing errors
ENDPOINT_LABEL: polyreactivity (PSR sort gate)

INSERT INTO measurements (residue_string, endpoint_label, measurement) VALUES
  ('QVQLVESGGGLVQAGGSLRLSCAASGSTFRYNAMGWYRQAPGKERELVAAITSGGTTNYADSVKGRFTISRDNAMNTVYLQMNILKPEDTAVYYCGKRGYYWTNLLYFLGYDYWGQGTQVTVSS', 'polyreactivity (PSR sort gate)', 'low polyreactivity'),
  ('QVQLVESGGGLVQAGGSLRLSCAASGSNFGSNAMGWYRQAPGKERELVATISGRGGSTYYADSVKGRFTISRDNAKNTVYLQMNSLKPEDTAVYYCAKDRRTWRYGQVFSPYYYWGQGTQVTVSS', 'polyreactivity (PSR sort gate)', 'low polyreactivity'),
  ('QVQLVESGGGLVQAGGSLRLSCAASGFTFYIYAMGWYGLAAGKERELVAAINFRGGSTYYADSVKGRFTISRDNAKNTVYLQMNSLKPEDTAVKYCAARSRDKYDYWGQGTQVTVSS', 'polyreactivity (PSR sort gate)', 'high polyreactivity'),
  ('QVQLVESGGGLVQAGGSLRLSCAASGMGWYRQAPGKERELVAAITSTDGSTYYADSVKGRFTISRDNAKNTVYLQMNSLTPEDTAVYYCAVEPYLWPVFSDDDYWGQGTQVTVSS', 'polyreactivity (PSR sort gate)', 'low polyreactivity'),
  ('QVQLVESGGGLVQAGGSLRLSCAASGIIFYRNAMGWYRQAPGKERELVAAISSRGGNTYYADSVKGRFTISRDNEKNTVYLQMNSLKPEDTAVYYCARDSYSLSRTYDSWGQGTQVTVSS', 'polyreactivity (PSR sort gate)', 'high polyreactivity'),
  ('QVQLVESGGGLVQAGCSLRLSCAASGRIFRKNTMGWYIQAPGKEWELVAAISFRGASTYYADSVKGRFTISRDNAKNTVYLQMNSLKPEDTAVYYCATVRAHASRLGYDYWGQGTQVTVSS', 'polyreactivity (PSR sort gate)', 'high polyreactivity'),
  ('QVQQQESGGGLVQAGGSLRLSCAASGTIFQLTVMGRYRQAPGKERELVASIDYGGNTNYADSVKGRFTISRDNAKNTVYLQMNSLKPEDTAVYYCAASSDSWTTHPYWGQGTQVTVSS', 'polyreactivity (PSR sort gate)', 'low polyreactivity'),
  ('QVQLVESGGGLVQAGGSHRLSSAASGSIIPSYAMGWYRQAPGKERELVAAITTSGGNTFYADSVKGRFTISRDNAKNTVYLQMNSLKPEDTAVYYCAADYSPYTVEYDYWGQGTQVTVSS', 'polyreactivity (PSR sort gate)', 'low polyreactivity'),
  ('QVQLVESGGGLVQAGGSLRLSCAASGLTFGHYAMGWYRQAPGKERELVATISSRGVSTRYADSVKGRFTISRDNAKNTVYLQMNSLKPEDTAVYYCNARDYTWGKYYSSKIGYYYWGQGTQVTVSS', 'polyreactivity (PSR sort gate)', 'high polyreactivity'),
  ('QVQLVESGGGLVQAGGSLRLSCAASGSIFVYNAMGWYRQAPGKEREWVAGITFIGGSTYYADSVKGRFTISRDNEKNTVYLQMNSLKPEDTAFYYCATDLPGGRYYGPYDYWGQGTQVTVSS', 'polyreactivity (PSR sort gate)', 'low polyreactivity'),
  ('QVQLVESGGGLVQAGGSLRLSCAASGSNFGVNAMGGYRQAPGKERELVAAITSGGGTYYTDSVKGRFTISRDNAKKTVYLQKNSLKPEATAVYYCMARVRGKQLVGRYDYWGQGTQVTVSS', 'polyreactivity (PSR sort gate)', 'high polyreactivity'),
  ('QVQLVESGGGLVQAGGSLRLSCAASGSTFPTYAMGWSRQAPGKERELVAAIDWSDGSITYYADSVKGRFTISRDNAKNTVFLQLNSLKPEDTAVYYCAKDYSQYGWRYDYWGQGTQVTVSS', 'polyreactivity (PSR sort gate)', 'low polyreactivity'),
  ('QVKLVESGGGLVQAGGSLRLSCAASGSIFGSNAMGWYRQAPGKERELVAAITGRGGRTYYADSVKGRFTISRDNAKNTVYLQMNSLKPEDTAVYYCAAIRREVVAGDYWGQGTQVTVSS', 'polyreactivity (PSR sort gate)', 'high polyreactivity'),
  ('QVQLVESGGGLVQAGGSLRLSCDASGRIFRENAMGWYRQAPGKERELVAAINRSGSRTYYADSVKGRFTISRDNAKNTVYLQMNSLKPEDTAVYYCATASSIRYDYWGQGTQVTVSS', 'polyreactivity (PSR sort gate)', 'high polyreactivity');
